src = paper PMC8301114

EXPERIMENT: Plasma concentration of OLEA and its metabolites after intragastric administration of ROO containing OLEA (LC-ESI-LTQ-Orbitrap-MS)
Type: in vivo, male Sprague–Dawley rats
TEST SETTINGS: male, Sprague-Dawley, rat, oral, 2.5 mg/kg, 2 h after intragastric OLEA 0.3 mg/mL in ROO, mean ± SD
MEASURE NAME: concentration at 2 h (µM)
Numeric only. Scale: µM

query: // returns reported concentration at 2 h for input OCCc1ccc(O)c(O)c1 [OH-TY, hydroxytyrosol]
result: 3.02
